Numbers sourced from patent US20240116912A1.

# system.tested: full length human FXR protein (Homo sapiens (Human))
# Sequence (Q96RI1 whole entry, the tested form may be a part): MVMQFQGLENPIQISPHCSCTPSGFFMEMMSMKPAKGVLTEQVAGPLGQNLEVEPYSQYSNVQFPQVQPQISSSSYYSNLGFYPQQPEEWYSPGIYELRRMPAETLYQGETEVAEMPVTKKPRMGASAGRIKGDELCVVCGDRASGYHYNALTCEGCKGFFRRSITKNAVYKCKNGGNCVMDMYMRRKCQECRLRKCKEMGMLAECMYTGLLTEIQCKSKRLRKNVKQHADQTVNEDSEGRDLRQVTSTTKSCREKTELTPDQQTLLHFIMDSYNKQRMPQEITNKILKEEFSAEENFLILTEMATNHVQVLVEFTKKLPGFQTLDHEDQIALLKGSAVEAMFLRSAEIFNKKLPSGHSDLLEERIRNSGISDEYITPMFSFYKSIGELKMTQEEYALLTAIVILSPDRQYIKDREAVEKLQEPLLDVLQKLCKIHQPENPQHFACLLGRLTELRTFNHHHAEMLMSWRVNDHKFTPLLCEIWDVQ
# assay.comment: FXR cellular assay (FXR-SRCP β-gal enzyme fragment complementation in CHO-K1 cells, chemiluminescence)
# condition.info: CHO-K1 cells with SRCP-EA and ProLink-labeled FXR, 0-10 micromolar compound, 37° C. for 6h, read-out: EC50 FXR-cell Luminescence/
Catalogue of log10 EC50 values
measured.metric: log10 EC50 (log10 of the value in nM)

mol.smiles: O=c1[nH]c(-c2ccc(N3[C@@H]4CC[C@H]3C[C@@H](OCc3c(-c5ccccc5Cl)noc3C3CC3)C4)nc2)no1
system.tested: full length human FXR protein (Homo sapiens (Human))
observed.result: 1.84

mol.smiles: CCOc1cccc(F)c1-c1noc(C2CC2)c1COC1CCN(c2ccc(-c3noc(=O)[nH]3)cc2)CC1
system.tested: full length human FXR protein (Homo sapiens (Human))
observed.result: 2.98

mol.smiles: O=c1[nH]c(-c2cc(N3CCC(OCc4c(-c5c(Cl)cccc5Cl)noc4C4CC4)CC3)no2)no1
system.tested: full length human FXR protein (Homo sapiens (Human))
observed.result: 4.00

mol.smiles: O=c1cc(-c2ccc(N3CCC(OCc4c(-c5ccccc5OC(F)(F)F)noc4C4CC4)CC3)nc2)o[nH]1
system.tested: full length human FXR protein (Homo sapiens (Human))
observed.result: 2.89

mol.smiles: O=c1[nH]nc(-c2ccc(N3[C@@H]4CC[C@H]3C[C@@H](OCc3c(-c5ccccc5OC(F)(F)F)noc3C3CC3)C4)cc2)o1
system.tested: full length human FXR protein (Homo sapiens (Human))
observed.result: 2.98

mol.smiles: O=c1[nH]c(-c2ccc(N3[C@@H]4CC[C@H]3C[C@@H](OCc3c(-c5ccccc5OC(F)(F)F)noc3C3CC3)C4)nc2)no1
system.tested: full length human FXR protein (Homo sapiens (Human))
observed.result: 2.39
